Cited source for all entries: paper PMC10222686

Molecular target: α-amylase (Sus scrofa)
Sequence (P00690 16-511): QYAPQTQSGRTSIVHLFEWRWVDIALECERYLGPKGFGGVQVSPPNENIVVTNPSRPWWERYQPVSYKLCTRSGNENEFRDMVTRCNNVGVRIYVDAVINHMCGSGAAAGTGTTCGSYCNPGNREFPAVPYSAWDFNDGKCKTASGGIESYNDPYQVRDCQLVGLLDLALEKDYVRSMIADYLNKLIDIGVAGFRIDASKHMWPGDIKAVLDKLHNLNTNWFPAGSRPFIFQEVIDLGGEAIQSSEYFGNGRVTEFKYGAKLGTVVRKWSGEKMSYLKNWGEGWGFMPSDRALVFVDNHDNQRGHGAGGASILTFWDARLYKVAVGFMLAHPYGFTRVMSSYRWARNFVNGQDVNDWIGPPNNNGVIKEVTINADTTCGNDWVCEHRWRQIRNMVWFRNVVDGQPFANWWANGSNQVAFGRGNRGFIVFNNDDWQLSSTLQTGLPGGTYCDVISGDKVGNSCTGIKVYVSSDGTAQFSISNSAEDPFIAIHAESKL
Measured IC50 values are reported for all entries that follow.

Some entries whose results are on file:
[[record]]
compound = "C=CCc1c(OCC2CO2)c(OC)cc2oc3ccccc3c(=O)c12 (centres unmarked) [Compound 11b]"
result = "> 200 µM"

[[record]]
compound = "COC(=O)COc1cc2c(=O)c3ccccc3oc2cc1OC [Compound 6a]"
result = "> 200 µM"

[[record]]
compound = "C=CCc1c(OCCCCn2ccnc2-c2ccc(Cl)cc2)c(OC)cc2oc3ccccc3c(=O)c12 [Compound 10f]"
result = "8.7 µM"


# get_value(readout='IC50', item= C=CCc1c(OCC(O)Cn2ccnc2-c2ccc(Cl)cc2)c(OC)cc2oc3ccccc3c(=O)c12 (centres unmarked) [Compound 12f] ) > 200 µM

Entry COc1cc2oc3ccccc3c(=O)c2cc1O [Compound 1, 2-Hydroxy-3-methoxy-9H-xanthen-9-one] please 26.5 µM

Entry C=CCc1c(OCC(O)Cn2ccnc2-c2ccccc2)c(OC)cc2oc3ccccc3c(=O)c12 (centres unmarked) [Compound 12e] please > 200 µM

Entry COc1cc2oc3ccccc3c(=O)c2cc1OCC(O)Cn1ccnc1-c1ccccc1 (centres unmarked) [Compound 12b] please > 200 µM

Entry C=CCc1c(OCC(O)Cn2ccnc2)c(OC)cc2oc3ccccc3c(=O)c12 (centres unmarked) [Compound 12d] please > 200 µM

====

molecular target: α-glucosidase; experiment: α-Glucosidase inhibition assay (p-NPG substrate); details: mean ± SD, n = 4
pIC50: −log10 of the molar value.
// label = Condition met if pIC50 is not less than 4, otherwise Condition not met

[[record]]
compound = "C=CCOc1cc2c(=O)c3ccccc3oc2cc1OC [Compound 6d, 2-(Allyloxy)-3-methoxy-9H-xanthen-9-one]"
classification = "Condition not met"


Test whether the compound COc1cc2oc3ccccc3c(=O)c2cc1OCC(O)Cn1ccnc1 (stereo not drawn) [Compound 12a] records pIC50 of 4 or higher. Condition not met

Entry COc1cc2oc3ccccc3c(=O)c2cc1OCCCCn1ccnc1 [Compound 10a] please Condition not met

Entry C=CCc1c(OCC(O)Cn2ccnc2)c(OC)cc2oc3ccccc3c(=O)c12 (stereo not drawn) [Compound 12d] please Condition not met

Entry COc1cc2oc3ccccc3c(=O)c2cc1OCCCCBr [Compound 9a] please Condition met

Entry COc1cc2oc3ccccc3c(=O)c2cc1OCCCCn1ccnc1-c1ccc(Cl)cc1 [Compound 10c] please Condition not met

Entry COC(=O)COc1cc2c(=O)c3ccccc3oc2cc1OC [Compound 6a] please Condition not met

Entry COc1cc2oc3ccccc3c(=O)c2cc1O [Compound 1, 2-Hydroxy-3-methoxy-9H-xanthen-9-one] please Condition not met

====

test system: α-glucosidase; assay: α-Glucosidase inhibition assay (p-NPG substrate); type: biochemical, Saccharomyces cerevisiae; conditions: 400 µM; mean ± SD, n = 4
Measured α-Glucosidase Inhibition (%) at 400 µM values are reported for all entries that follow.
Note: unit % is implicit; provide only the numeric part.

Some entries whose results are on file:
[[record]]
compound = "C=CCc1c(OCC(O)Cn2ccnc2)c(OC)cc2oc3ccccc3c(=O)c12 (stereo not shown) [Compound 12d]"
readout_type = "α-Glucosidase Inhibition (%) at 400 µM"
result_units = "%"
numeric_result = 52.2

[[record]]
compound = "COc1cc2oc3ccccc3c(=O)c2cc1OCCCCn1ccnc1 [Compound 10a]"
readout_type = "α-Glucosidase Inhibition (%) at 400 µM"
result_units = "%"
numeric_result = 1.3

[[record]]
compound = "COc1cc2oc3ccccc3c(=O)c2cc1OCC(O)Cn1ccnc1 (stereo not shown) [Compound 12a]"
readout_type = "α-Glucosidase Inhibition (%) at 400 µM"
result_units = "%"
numeric_result = 1.87

[[record]]
compound = "C=CCc1c(OCC2CO2)c(OC)cc2oc3ccccc3c(=O)c12 (stereo not shown) [Compound 11b]"
readout_type = "α-Glucosidase Inhibition (%) at 400 µM"
result_units = "%"
numeric_result = 99.7

[[record]]
compound = "C[C@H]1O[C@H](O[C@H]2[C@H](O)[C@@H](O)[C@@H](O[C@H]3[C@H](O)[C@@H](O)C(O)O[C@@H]3CO)O[C@@H]2CO)[C@H](O)[C@@H](O)[C@@H]1N[C@H]1C=C(CO)[C@@H](O)[C@H](O)[C@H]1O (stereo partly shown) [Acarbose, acarbose, reference compound]"
readout_type = "α-Glucosidase Inhibition (%) at 400 µM"
result_units = "%"
numeric_result = 63.18

[[record]]
compound = "C=CCc1c(OCC(O)Cn2ccnc2-c2ccc(Cl)cc2)c(OC)cc2oc3ccccc3c(=O)c12 (stereo not shown) [Compound 12f]"
readout_type = "α-Glucosidase Inhibition (%) at 400 µM"
result_units = "%"
numeric_result = 99.1

[[record]]
compound = "C=CCc1c(OCCCCn2ccnc2)c(OC)cc2oc3ccccc3c(=O)c12 [Compound 10d]"
readout_type = "α-Glucosidase Inhibition (%) at 400 µM"
result_units = "%"
numeric_result = 2.5

[[record]]
compound = "COc1cc2oc3ccccc3c(=O)c2cc1O [Compound 1, 2-Hydroxy-3-methoxy-9H-xanthen-9-one]"
readout_type = "α-Glucosidase Inhibition (%) at 400 µM"
result_units = "%"
numeric_result = 26.5


# get_value(readout='α-Glucosidase Inhibition (%) at 400 µM', item= COc1cc2oc3ccccc3c(=O)c2cc1OCC(=O)c1ccc(Cl)cc1 [Compound 6c] ) 92.6

Entry COc1cc2oc3ccccc3c(=O)c2c2c1OC(C)(C)C=C2 [Compound 8] please 38.3

Entry COc1cc2oc3ccccc3c(=O)c2cc1OCC1CO1 (stereo not shown) [Compound 11a] please 0.48

Entry COc1cc2oc3ccccc3c(=O)c2cc1OCCCCn1ccnc1-c1ccc(Cl)cc1 [Compound 10c] please 95.1

Entry C=CCOc1cc2c(=O)c3ccccc3oc2cc1OC [Compound 6d, 2-(Allyloxy)-3-methoxy-9H-xanthen-9-one] please 22.1

Entry C=CCc1c(OCCCCBr)c(OC)cc2oc3ccccc3c(=O)c12 [Compound 9b] please 96.3

Entry C=CCc1c(OCC(O)Cn2ccnc2-c2ccccc2)c(OC)cc2oc3ccccc3c(=O)c12 (stereo not shown) [Compound 12e] please 96.6

Entry COc1cc2oc3ccccc3c(=O)c2cc1OCC(O)Cn1ccnc1-c1ccccc1 (stereo not shown) [Compound 12b] please 84.9

====

readout-type: melting point

[[record]]
compound = "COc1cc2oc3ccccc3c(=O)c2cc1OCC(=O)c1ccc(Cl)cc1"
result = "175 to 176 °C"

[[record]]
compound = "COc1cc2oc3ccccc3c(=O)c2cc1OCC(C)=O"
result = "144 to 145 °C"

[[record]]
compound = "C=CCc1c(OCC(O)Cn2ccnc2-c2ccc(Cl)cc2)c(OC)cc2oc3ccccc3c(=O)c12 (stereo not drawn) [Compound 12f]"
result = "116 to 118 °C"

[[record]]
compound = "COc1cc2oc3ccccc3c(=O)c2cc1OCC(O)Cn1ccnc1-c1ccc(Cl)cc1 (stereo not drawn) [Compound 12c]"
result = "235 °C (dec.)"

[[record]]
compound = "COc1cc2oc3ccccc3c(=O)c2cc1OCCCCn1ccnc1 [Compound 10a]"
result = "137 to 138 °C"


# get_value(readout='melting point', item= C=CCc1c(OCCCCn2ccnc2-c2ccc(Cl)cc2)c(OC)cc2oc3ccccc3c(=O)c12 [Compound 10f] ) 90 to 92 °C

====

biological target: α-amylase (Sus scrofa); construct: purchased Sigma-Aldrich; host or cells: porcine pancreas; assay: α-Amylase inhibition assay (starch/DNS); type: biochemical, porcine; settings: 100 µM; mean ± SD, n = 4; NI = no inhibition;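 further: reducing sugar measured by DNS colour at 540 nm, inhibition relative to enzyme reaction lacking test compound, blank without enzyme subtracted for background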
// label = yes (1) if inhibition at 100 µM is not less than 8%, otherwise no (0)

Test whether the molecule C=CCOc1cc2c(=O)c3ccccc3oc2cc1OC [Compound 6d, 2-(Allyloxy)-3-methoxy-9H-xanthen-9-one] records inhibition at 100 µM of 8% or higher. no (0)

Entry COC(=O)COc1cc2c(=O)c3ccccc3oc2cc1OC [Compound 6a] please yes (1)

Entry C=CCc1c(OCCCCBr)c(OC)cc2oc3ccccc3c(=O)c12 [Compound 9b] please no (0)

Entry COc1cc2oc3ccccc3c(=O)c2cc1OCC(O)Cn1ccnc1-c1ccc(Cl)cc1 (stereo not shown) [Compound 12c] please no (0)

Entry COc1cc2oc3ccccc3c(=O)c2cc1OCCCCn1ccnc1 [Compound 10a] please no (0)
